Assay: Pharmacokinetics of PTX and FM04 after oral co-administration
Assay type: in vivo, Balb/c mice
Settings: female, Balb/c, mouse, plasma, po, mice, oral; FM04 45 mg/kg + PTX 70 mg/kg; read-out: FM04 AUC(0-t) (converted)
ASSAY ENDPOINT: AUC(0-t) (ng·h/mL)
Express your answer in ng·h/mL, writing the number without its unit.

Please report AUC(0-t) for the following compound: O=c1cc(-c2ccc(OCCOCCNCc3ccccc3)cc2)oc2ccccc12
740

---

Test: Pharmacokinetics of PTX and FM04 after oral co-administration
Type: in vivo, Balb/c mice
Details: female, Balb/c, mouse, plasma; mice; FM04 100 mg/kg oral alone; at 720 min; read-out: minimum plasma concentration of FM04
Experimental: Pharmacokinetics (PK) study of PTX or FM04 after their oral co-administration. […] PTX (20 or 70 mg/kg) was orally co-administered with FM04 (0, 22 or 45 mg/kg) to mice, plasma was collected at 30, 60, 120, 240 and 420 min, respectively. […] The concentration FM04 at each time point was determined by UPLC-MS/MS Pharmacokinetic parameter AUC was calculated by the pharmacokinetic software-Summit® PK solutions 2.0 (Summit Research Service, Ashland, Wilmington, DE, USA). […]
ASSAY ENDPOINT: concentration at 720 min (ng/mL)
Express your answer in ng/mL, writing the number without its unit.

Please report concentration at 720 min for the following molecule: O=c1cc(-c2ccc(OCCOCCNCc3ccccc3)cc2)oc2ccccc12
43

---

Assay: Pharmacokinetics of PTX and FM04 after oral co-administration
Type: in vivo, Balb/c mice
Conditions: female, Balb/c, mouse, plasma, po, 20 mg/kg, mice; PTX 20 mg/kg alone
ASSAY ENDPOINT: AUC (ng·h/mL)
Express your answer in ng·h/mL, writing the number without its unit.

Please report AUC for the following compound: CC(=O)O[C@H]1C(=O)[C@@]2(C)[C@H]([C@H](OC(=O)c3ccccc3)[C@]3(O)C[C@H](OC(=O)[C@H](O)[C@@H](NC(=O)c4ccccc4)c4ccccc4)C(C)=C1C3(C)C)[C@]1(OC(C)=O)CO[C@@H]1C[C@@H]2O
143

---

Experiment: In vivo monitoring of FD18 and its metabolites in plasma after I.V. FD18
Design: species or system SD rats
Conditions: Sprague-Dawley, rat, iv, after FD18 5 mg/kg I.V.
ASSAY ENDPOINT: Tmax (min)
Express your answer in min, writing the number without its unit.

Please report Tmax for the following compound: O=c1cc(-c2ccc(OCCOCCO)cc2)oc2ccccc12
50

Please report Tmax for the following compound: O=c1cc(-c2ccc(OCCOCCNCc3ccccc3)cc2)oc2ccccc12
60

Please report Tmax for the following compound: O=c1cc(-c2ccc(OCCOCCNCCOCCOc3ccc(-c4cc(=O)c5ccccc5o4)cc3)cc2)oc2ccccc12 [14a]
50

---

Assay: Pharmacokinetics of PTX and FM04 after oral co-administration
Type: in vivo, Balb/c mice
Conditions: female, Balb/c, mouse, plasma, po, mice, oral; PTX 70 mg/kg + FM04 22 mg/kg; read-out: PTX Cmax
Experimental: Pharmacokinetics (PK) study of PTX or FM04 after their oral co-administration. […] PTX (20 or 70 mg/kg) was orally co-administered with FM04 (0, 22 or 45 mg/kg) to mice, plasma was collected at 30, 60, 120, 240 and 420 min, respectively. […] The concentration FM04 at each time point was determined by UPLC-MS/MS Pharmacokinetic parameter AUC was calculated by the pharmacokinetic software-Summit® PK solutions 2.0 (Summit Research Service, Ashland, Wilmington, DE, USA). […]
ASSAY ENDPOINT: Cmax (ng/mL)
Express your answer in ng/mL, writing the number without its unit.

Please report Cmax for the following compound: CC(=O)O[C@H]1C(=O)[C@@]2(C)[C@H]([C@H](OC(=O)c3ccccc3)[C@]3(O)C[C@H](OC(=O)[C@H](O)[C@@H](NC(=O)c4ccccc4)c4ccccc4)C(C)=C1C3(C)C)[C@]1(OC(C)=O)CO[C@@H]1C[C@@H]2O [PTX, paclitaxel]
4950

---

Test: Pharmacokinetics of PTX and FM04 after oral co-administration
Assay type: in vivo, Balb/c mice
Conditions: female, Balb/c, mouse, plasma, po, 100 mg/kg, mice, oral; FM04 100 mg/kg, PTX 0 mg/kg; read-out: FM04 Tmax (converted)
ASSAY ENDPOINT: Tmax (min)
Express your answer in min, writing the number without its unit.

Please report Tmax for the following compound: O=c1cc(-c2ccc(OCCOCCNCc3ccccc3)cc2)oc2ccccc12
30

---

Target: P-gp (Homo sapiens, UniProt P08183)
Sequence (P08183 whole entry): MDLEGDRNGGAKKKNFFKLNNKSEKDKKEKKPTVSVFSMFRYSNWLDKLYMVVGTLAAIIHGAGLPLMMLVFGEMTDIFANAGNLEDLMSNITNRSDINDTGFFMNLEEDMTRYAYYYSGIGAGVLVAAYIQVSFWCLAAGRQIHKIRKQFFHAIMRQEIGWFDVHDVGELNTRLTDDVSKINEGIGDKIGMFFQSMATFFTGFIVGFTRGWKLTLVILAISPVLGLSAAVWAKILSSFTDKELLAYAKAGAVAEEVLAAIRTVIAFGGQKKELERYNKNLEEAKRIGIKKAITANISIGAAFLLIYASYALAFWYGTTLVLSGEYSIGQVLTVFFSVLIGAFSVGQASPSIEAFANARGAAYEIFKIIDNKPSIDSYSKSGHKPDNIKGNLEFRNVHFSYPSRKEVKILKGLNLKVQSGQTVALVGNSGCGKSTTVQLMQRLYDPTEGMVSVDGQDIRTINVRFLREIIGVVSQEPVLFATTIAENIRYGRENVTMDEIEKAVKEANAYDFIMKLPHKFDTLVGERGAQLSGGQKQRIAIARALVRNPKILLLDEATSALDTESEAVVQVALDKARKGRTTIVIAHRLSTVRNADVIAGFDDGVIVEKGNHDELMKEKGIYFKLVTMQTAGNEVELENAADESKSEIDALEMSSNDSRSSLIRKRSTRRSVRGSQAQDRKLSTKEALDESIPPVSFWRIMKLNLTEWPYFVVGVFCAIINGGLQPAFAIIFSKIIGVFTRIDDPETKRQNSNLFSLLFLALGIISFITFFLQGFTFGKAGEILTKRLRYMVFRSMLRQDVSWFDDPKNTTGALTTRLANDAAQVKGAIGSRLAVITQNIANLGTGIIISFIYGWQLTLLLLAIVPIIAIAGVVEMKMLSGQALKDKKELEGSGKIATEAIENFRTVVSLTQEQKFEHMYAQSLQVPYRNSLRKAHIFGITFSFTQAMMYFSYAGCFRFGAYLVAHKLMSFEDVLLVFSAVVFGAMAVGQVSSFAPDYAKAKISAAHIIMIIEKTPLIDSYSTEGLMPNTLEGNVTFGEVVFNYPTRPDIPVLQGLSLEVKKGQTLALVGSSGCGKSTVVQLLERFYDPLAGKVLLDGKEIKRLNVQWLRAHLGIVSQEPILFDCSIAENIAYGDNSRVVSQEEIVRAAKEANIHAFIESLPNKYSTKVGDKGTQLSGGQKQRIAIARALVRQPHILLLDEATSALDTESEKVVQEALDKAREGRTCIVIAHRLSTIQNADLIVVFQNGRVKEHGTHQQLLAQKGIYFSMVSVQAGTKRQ
Assay: Reversal of P-gp-mediated MDR in LCC6MDR cells (MTS cell viability, 5 days)
Conditions: EC50 needed for reversing MDR in LCC6MDR cells: DOX, LCC6MDR
ASSAY ENDPOINT: EC50

Please report EC50 for the following compound: O=c1cc(-c2ccc(OCCOCCNCc3ccccc3)cc2)oc2ccccc12
153 nM

---

Test system: LCC6 cells
Test: IC50 of anticancer drugs in wild-type LCC6 with or without FM04
Assay type: cell-based, human
Details: IC50 in LCC6MDR without FM04 / IC50 in LCC6
Decision: RF, LCC6 + DMSO >= 40 yields 1, all other cases yield 0.

Does the compound CC[C@]1(O)C[C@@H]2CN(CCc3c([nH]c4ccccc34)[C@@](C(=O)OC)(c3cc4c(cc3OC)N(C)[C@H]3[C@@](O)(C(=O)OC)[C@H](OC(C)=O)[C@]5(CC)C=CCN6CC[C@]43[C@@H]65)C2)C1 have recorded RF, LCC6 + DMSO that is 40 or more?
0

Does the compound COc1cccc2c1C(=O)c1c(O)c3c(c(O)c1C2=O)C[C@@](O)(C(=O)CO)C[C@@H]3O[C@H]1C[C@H](N)[C@H](O)[C@H](C)O1 have recorded RF, LCC6 + DMSO that is 40 or more?
0

Does the compound COc1cccc2c1C(=O)c1c(O)c3c(c(O)c1C2=O)C[C@@](O)(C(C)=O)C[C@@H]3O[C@H]1C[C@H](N)[C@H](O)[C@H](C)O1 have recorded RF, LCC6 + DMSO that is 40 or more?
1

Does the compound O=C1c2c(O)ccc(O)c2C(=O)c2c(NCCNCCO)ccc(NCCNCCO)c21 have recorded RF, LCC6 + DMSO that is 40 or more?
0

Does the compound CC(=O)O[C@H]1C(=O)[C@@]2(C)[C@H]([C@H](OC(=O)c3ccccc3)[C@]3(O)C[C@H](OC(=O)[C@H](O)[C@@H](NC(=O)c4ccccc4)c4ccccc4)C(C)=C1C3(C)C)[C@]1(OC(C)=O)CO[C@@H]1C[C@@H]2O have recorded RF, LCC6 + DMSO that is 40 or more?
1

---

Molecular target: P-gp (Homo sapiens)
Test: Reversal of P-gp-mediated MDR in LCC6MDR cells (MTS cell viability, 5 days)
Conditions: EC50 needed for reversing MDR in LCC6MDR cells: Vinblastine, LCC6MDR
ASSAY ENDPOINT: pEC50
Note: pEC50 values are expressed as the negative base-10 logarithm of concentration in M.

Please report pEC50 for the following molecule: O=c1cc(-c2ccc(OCCOCCNCc3ccccc3)cc2)oc2ccccc12
7.21

---

Experiment: Pharmacokinetics of PTX and FM04 after oral co-administration
Type: in vivo, Balb/c mice
Conditions: female, Balb/c, mouse, plasma, po, mice, oral; FM04 45 mg/kg + PTX 50 mg/kg; read-out: FM04 AUC(0-t) (converted)
ASSAY ENDPOINT: AUC(0-t) (ng·h/mL)
Express your answer in ng·h/mL, writing the number without its unit.

Please report AUC(0-t) for the following compound: O=c1cc(-c2ccc(OCCOCCNCc3ccccc3)cc2)oc2ccccc12 [FM04]
645

---

Assay: Pharmacokinetics of PTX and FM04 after oral co-administration
Format: in vivo, Balb/c mice
Details: female, Balb/c, mouse, plasma, po, 70 mg/kg, mice, oral; PTX 70 mg/kg + FM04 45 mg/kg
ASSAY ENDPOINT: AUC (ng·h/mL)
Express your answer in ng·h/mL, writing the number without its unit.

Please report AUC for the following compound: CC(=O)O[C@H]1C(=O)[C@@]2(C)[C@H]([C@H](OC(=O)c3ccccc3)[C@]3(O)C[C@H](OC(=O)[C@H](O)[C@@H](NC(=O)c4ccccc4)c4ccccc4)C(C)=C1C3(C)C)[C@]1(OC(C)=O)CO[C@@H]1C[C@@H]2O
30000

---

Test: Pharmacokinetics of PTX and FM04 after oral co-administration
Type: in vivo, Balb/c mice
Conditions: female, Balb/c, mouse, plasma, po, mice, oral; PTX 20 mg/kg + FM04 45 mg/kg; read-out: PTX Cmax
ASSAY ENDPOINT: Cmax
Write the numeric value and follow it with the unit.

Please report Cmax for the following compound: CC(=O)O[C@H]1C(=O)[C@@]2(C)[C@H]([C@H](OC(=O)c3ccccc3)[C@]3(O)C[C@H](OC(=O)[C@H](O)[C@@H](NC(=O)c4ccccc4)c4ccccc4)C(C)=C1C3(C)C)[C@]1(OC(C)=O)CO[C@@H]1C[C@@H]2O
3510 ng/mL
